# assay overview: Partition coefficient, log P at pH 7 by shake flask method
# Type: physicochemical
# condition context: octanol/water
Catalogue of logD readings, one per entry.

{"columns": ["smiles", "logD"],
 "data": [
  ["Clc1cccc(Cl)c1/C=N/N=c1ccn(Cc2c(Cl)cccc2Cl)cc1", 2.2],
  ["Clc1cccc(Cl)c1/C=N/N=c1ccn(CCCc2ccccc2)cc1", 1.3]
]}

----------
Measured pIC50 by item
# study target: Cholinesterase (Equus caballus, UniProt P81908)
# Sequence (P81908 whole entry): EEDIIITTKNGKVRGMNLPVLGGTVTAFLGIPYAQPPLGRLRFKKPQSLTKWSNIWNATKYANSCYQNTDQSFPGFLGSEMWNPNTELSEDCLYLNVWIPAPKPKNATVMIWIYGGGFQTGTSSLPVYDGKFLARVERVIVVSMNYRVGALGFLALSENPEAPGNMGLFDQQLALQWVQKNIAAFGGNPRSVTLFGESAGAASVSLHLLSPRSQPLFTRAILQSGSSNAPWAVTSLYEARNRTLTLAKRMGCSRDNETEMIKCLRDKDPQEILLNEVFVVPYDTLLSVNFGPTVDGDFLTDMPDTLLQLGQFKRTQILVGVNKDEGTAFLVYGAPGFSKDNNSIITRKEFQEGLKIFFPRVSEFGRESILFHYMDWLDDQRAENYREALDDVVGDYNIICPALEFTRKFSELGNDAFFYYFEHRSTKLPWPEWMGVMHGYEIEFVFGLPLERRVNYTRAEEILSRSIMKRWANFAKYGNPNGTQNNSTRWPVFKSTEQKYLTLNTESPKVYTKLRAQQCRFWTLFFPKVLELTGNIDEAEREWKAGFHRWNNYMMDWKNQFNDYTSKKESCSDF
# assay overview: Inhibition of horse serum BuChE by modified Ellman's method
pIC50: −log10 of the molar value.
assay readout: pIC50

{"columns": ["smiles", "assay readout", "value prefix", "value observed"],
 "data": [
  ["Clc1cccc(Cl)c1CO/N=C/c1cc[n+](CCCc2ccccc2)cc1", "pIC50", "=", 5.56],
  ["Clc1cccc(Cl)c1CON=C1CCN(CCCc2ccccc2)CC1", "pIC50", "<", 4.00],
  ["Clc1cccc(Cl)c1CO/N=C/c1cc[n+](CCC[n+]2ccc(/C=N/OCc3c(Cl)cccc3Cl)cc2)cc1.[Br-].[Br-]", "pIC50", "=", 5.74],
  ["Clc1cccc(Cl)c1/C=N/N=c1ccn(CCCc2ccccc2)cc1", "pIC50", "=", 5.00],
  ["Clc1cccc(Cl)c1/C=N/N=c1ccn(CCc2ccccc2)cc1", "pIC50", "=", 5.05],
  ["Clc1cccc(Cl)c1/C=N/N=c1ccn(Cc2ccccc2)cc1", "pIC50", "=", 5.10],
  ["Cn1ccc(=N/N=C/c2c(Cl)cccc2Cl)cc1", "pIC50", "=", 4.96]
]}
